Data credit: ChEMBL document CHEMBL2074492

# tested-target: UniProt:Q63089
# Sequence (Q63089 whole entry): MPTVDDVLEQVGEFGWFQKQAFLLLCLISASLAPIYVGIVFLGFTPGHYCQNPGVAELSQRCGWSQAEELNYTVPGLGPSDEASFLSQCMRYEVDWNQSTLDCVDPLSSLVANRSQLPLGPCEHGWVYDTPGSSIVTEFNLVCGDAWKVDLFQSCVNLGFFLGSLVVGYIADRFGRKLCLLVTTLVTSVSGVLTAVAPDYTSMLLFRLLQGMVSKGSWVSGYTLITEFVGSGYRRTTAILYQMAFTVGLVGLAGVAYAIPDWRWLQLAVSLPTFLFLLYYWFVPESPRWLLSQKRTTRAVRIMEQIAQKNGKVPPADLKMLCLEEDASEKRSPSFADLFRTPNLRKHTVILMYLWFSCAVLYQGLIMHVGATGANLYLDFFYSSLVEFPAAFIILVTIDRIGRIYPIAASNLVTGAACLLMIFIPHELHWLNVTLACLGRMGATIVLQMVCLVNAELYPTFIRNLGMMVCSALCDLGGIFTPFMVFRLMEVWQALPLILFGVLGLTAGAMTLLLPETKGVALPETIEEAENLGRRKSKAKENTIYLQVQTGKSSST
# assay-info: TP_TRANSPORTER: inhibition of MPP+ uptake in OCT1-expressing HEK293 cells
property-name: Ki (µM)
# number only, unit µM dropped from output

Ask: Given NCCc1c[nH]cn1 , respond with its Ki.
Result: 1400
